molecular target: rat P2X7R (Rattus norvegicus (Rat), UniProt Q64663); assay: rat P2X7 Ca2+ influx, Screen Quest Fluo-8 No Wash Calcium Assay Kit (FLIPR TETRA); assay type: cell-based; conditions: Table 4; HEK-293 cells stably transfected with rat P2X7R, BzATP stimulation; read-out: rP2X7 (IC50; nM)
Sequence (Q64663 whole entry): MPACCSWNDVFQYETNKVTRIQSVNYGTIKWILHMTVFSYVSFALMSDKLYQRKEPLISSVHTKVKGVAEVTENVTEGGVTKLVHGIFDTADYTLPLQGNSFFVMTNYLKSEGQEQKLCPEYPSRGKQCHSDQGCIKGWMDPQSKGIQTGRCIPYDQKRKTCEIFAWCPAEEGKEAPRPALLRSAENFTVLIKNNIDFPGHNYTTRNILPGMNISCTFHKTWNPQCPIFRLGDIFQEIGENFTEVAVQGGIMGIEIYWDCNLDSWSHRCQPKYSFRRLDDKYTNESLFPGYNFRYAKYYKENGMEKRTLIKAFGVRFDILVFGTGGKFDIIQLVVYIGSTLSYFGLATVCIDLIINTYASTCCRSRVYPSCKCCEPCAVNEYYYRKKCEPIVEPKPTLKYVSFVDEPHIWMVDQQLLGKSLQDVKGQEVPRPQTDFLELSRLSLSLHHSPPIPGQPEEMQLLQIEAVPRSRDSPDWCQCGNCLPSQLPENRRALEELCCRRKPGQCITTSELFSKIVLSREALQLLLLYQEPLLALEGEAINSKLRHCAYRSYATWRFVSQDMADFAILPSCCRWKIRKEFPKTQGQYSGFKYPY
Parameter: IC50 (nM)
One number for each entry, in nM.

O=C(NCC(c1scnc1C(F)F)N1CCC(OCc2ccc(F)c(F)c2)CC1)c1cccc2ncccc12 (stereo not drawn) : 182

Respectfully, I request IC50 for each entry included below.
1. Cc1ncsc1C(CNC(=O)c1c(F)cccc1Cl)N1CCC(OCc2ccc(F)cc2)CC1 (stereo not drawn)
2. Cc1ncsc1C(CNC(=O)c1c(F)cccc1Cl)N1CCC(Oc2ccc(Cl)cc2)CC1 (stereo not drawn)
3. Cc1ncsc1C(CNC(=O)c1cccc2ncccc12)N1CCC(OCc2ccccc2F)CC1 (stereo not drawn)
4. O=C(NCC(c1scnc1C(F)F)N1CCC(Oc2ccccc2F)CC1)c1c(F)cccc1Cl (stereo not drawn)

1040
1310
762
329

Please look at this molecule and report its IC50: O=C(NCC(c1scnc1C(F)F)N1CCC(OCc2ccc(F)c(F)c2)CC1)c1c(F)cccc1Cl (stereo not drawn)
1210

----------
molecular target: rat P2X7R (Rattus norvegicus (Rat), UniProt Q64663); test: rat P2X7 Ca2+ influx, Screen Quest Fluo-8 No Wash Calcium Assay Kit (FLIPR TETRA); type: cell-based; conditions: Table 4; HEK-293 cells stably transfected with rat P2X7R, BzATP stimulation; read-out: rP2X7 (IC50; nM)
API: label(entry) gives satisfied if the entry's IC50 is strictly smaller than 400 nM; on equality or larger values it gives not satisfied.

Cc1ncsc1C(CNC(=O)c1c(F)cccc1Cl)N1CCC(OCc2cc(F)cc(F)c2)CC1 (stereo not shown) : not satisfied
O=C(NCC(c1scnc1C(F)F)N1CCC(Oc2ccccc2F)CC1)c1cccc2ncccc12 (stereo not shown) : satisfied
Cc1ncsc1C(CNC(=O)c1cccc2ncccc12)N1CCC(Oc2ccc(F)c(F)c2)CC1 (stereo not shown) : satisfied
Cc1ncsc1C(CNC(=O)c1cccc2ncccc12)N1CCC(Oc2ccccc2F)CC1 (stereo not shown) : satisfied
O=C(NCC(c1scnc1C(F)F)N1CCC(Oc2ccc(Cl)cc2)CC1)c1cccc2ncccc12 (stereo not shown) : satisfied
O=C(NCC(c1scnc1C(F)F)N1CCC(Oc2cc(F)cc(F)c2)CC1)c1cccc2ncccc12 (stereo not shown) : satisfied

# strict comparison: is reported IC50 < 400 nM? input = O=C(NCC(c1scnc1C(F)F)N1CCC(Oc2ccc(Cl)cc2)CC1)c1c(F)cccc1Cl (stereo not shown)
not satisfied

Bench note: check whether Cc1ncsc1C(CNC(=O)c1c(F)cccc1Cl)N1CCC(OCc2ccc(F)c(F)c2)CC1 (stereo not shown) shows IC50 below 400 nM
not satisfied

# check: IC50 < 400 nM for O=C(NCC(c1scnc1C(F)F)N1CCC(Oc2cc(F)cc(F)c2)CC1)c1c(F)cccc1Cl (stereo not shown)
not satisfied

Strictly below 400 nM: is that where IC50 of Cc1ncsc1C(CNC(=O)c1cccc2ncccc12)N1CCC(OCc2cccc(F)c2)CC1 (stereo not shown) sits?
satisfied

Below 400 nM on IC50? Entry Cc1ncsc1C(CNC(=O)c1cccc2ncccc12)N1CCC(Oc2ccc(F)cc2)CC1 (stereo not shown)
not satisfied

IC50 under 400 nM? Item: Cc1ncsc1C(CNC(=O)c1c(F)cccc1Cl)N1CCC(OCc2ccccc2F)CC1 (stereo not shown)
not satisfied

Decide: IC50 of Cc1ncsc1C(CNC(=O)c1cccc2ncccc12)N1CCC(Oc2cccc(F)c2)CC1 (stereo not shown) strictly below 400 nM?
satisfied

Answer whether the molecule Cc1ncsc1C(CNC(=O)c1c(F)cccc1Cl)N1CCC(OCc2cccc(F)c2)CC1 (stereo not shown) has IC50 strictly less than 400 nM
satisfied

Would you kindly verify if IC50 of Cc1ncsc1C(CNC(=O)c1cccc2ncccc12)N1CCC(OCc2ccc(F)cc2)CC1 (stereo not shown) is strictly less than 400 nM?
satisfied

----------
Please provide measured IC50 for the entries that follow.
biological target: rat P2X7R (Rattus norvegicus (Rat), UniProt Q64663); assay: rat P2X7 Ca2+ influx, Screen Quest Fluo-8 No Wash Calcium Assay Kit (FLIPR TETRA); assay type: cell-based; conditions: Table 5; comparison with Compound 59 of WO2015118019; read-out: rP2X7 (IC50; nM)

Study these solved cases before continuing.
Cc1ncsc1C(CNC(=O)c1cccc2ncccc12)N1CCC(Oc2cccc(F)c2)CC1 (stereo not shown) [Compound 21] : 268 nM
O=C(NCC(c1scnc1C(F)F)N1CCC(Oc2ccc(F)cc2)CC1)c1cccc2ncccc12 (stereo not shown) [Compound 34] : 144 nM
O=C(NCC(c1scnc1C(F)F)N1CCC(Oc2ccccc2F)CC1)c1cccc2ncccc12 (stereo not shown) [Compound 37] : 133 nM

From here, focus on the item given below.
Report value only: IC50, rat P2X7R (Rattus norvegicus (Rat), UniProt Q64663), Cc1ncsc1C(CNC(=O)c1cccc2ncccc12)N1CCC(Oc2ccc(F)c(F)c2)CC1 (stereo not shown) [Compound 24]
201 nM

----------
Kindly state IC50 for each of the entries shown.
target: human P2X7 channel (Homo sapiens (Human)); assay: human P2X7 channel assay by automated patch-clamp (QPatch16X), BzATP-evoked current; format: cell-based; settings: HEK-293 cells expressing P2X7, whole-cell voltage clamp, 100 microM BzATP, holding -80 mV; read-out: hP2X7 (IC50; nM)
Sequence (Q99572 whole entry): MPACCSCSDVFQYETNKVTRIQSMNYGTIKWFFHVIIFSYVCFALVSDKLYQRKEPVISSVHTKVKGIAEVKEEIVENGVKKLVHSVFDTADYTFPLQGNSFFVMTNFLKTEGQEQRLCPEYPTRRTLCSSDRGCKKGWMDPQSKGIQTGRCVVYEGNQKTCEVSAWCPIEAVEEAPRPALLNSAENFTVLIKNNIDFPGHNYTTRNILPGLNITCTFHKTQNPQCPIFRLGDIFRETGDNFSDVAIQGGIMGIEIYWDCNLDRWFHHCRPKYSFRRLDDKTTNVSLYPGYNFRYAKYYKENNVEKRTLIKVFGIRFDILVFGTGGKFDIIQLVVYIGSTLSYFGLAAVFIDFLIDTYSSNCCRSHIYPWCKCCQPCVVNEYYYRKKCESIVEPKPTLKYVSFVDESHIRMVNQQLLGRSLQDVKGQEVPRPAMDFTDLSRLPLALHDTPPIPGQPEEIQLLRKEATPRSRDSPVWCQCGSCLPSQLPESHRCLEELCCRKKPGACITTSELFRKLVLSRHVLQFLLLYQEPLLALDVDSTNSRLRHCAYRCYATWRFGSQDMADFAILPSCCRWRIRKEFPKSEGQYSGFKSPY
Form entry: enter the amount, then its unit.

Record IC50 for all entries; do not skip any.
1. Cc1ncsc1C(CNC(=O)c1cccc2ncccc12)N1CCC(OCc2cc(F)cc(F)c2)CC1 (stereo not drawn) [Compound 17]
2. Cc1ncsc1C(CNC(=O)c1cccc2ncccc12)N1CCC(OCc2cccc(F)c2)CC1 (stereo not drawn) [Compound 15]

["32.9 nM", "11.6 nM"]

Could you tell me IC50 for each of these compounds? They are listed below.
1. Cc1ncsc1C(CNC(=O)c1cccc2ncccc12)N1CCC(Oc2cccc(F)c2)CC1 (stereo not drawn) [Compound 21]
2. Cc1ncsc1C(CNC(=O)c1c(F)cccc1Cl)N1CCC(OCc2ccc(F)cc2)CC1 (stereo not drawn) [Compound 1]

26.4 nM
45 nM

Would you mind listing IC50 for each of the following compounds?
1. Cc1ncsc1C(CNC(=O)c1cccc2ncccc12)N1CCC(Oc2ccccc2F)CC1 (stereo not drawn) [Compound 22]
2. O=C(NCC(c1scnc1C(F)F)N1CCC(Oc2ccccc2F)CC1)c1c(F)cccc1Cl (stereo not drawn) [Compound 30]
3. Cc1ncsc1C(CNC(=O)c1c(F)cccc1Cl)N1CCC(Oc2cc(F)cc(F)c2)CC1 (stereo not drawn) [Compound 11]
4. Cc1ncsc1C(CNC(=O)c1c(F)cccc1Cl)N1CCC(OCc2cc(F)cc(F)c2)CC1 (stereo not drawn) [Compound 5]
5. Cc1ncsc1C(CNC(=O)c1c(F)cccc1Cl)N1CCC(Oc2cccc(F)c2)CC1 (stereo not drawn) [Compound 9]
6. Cc1ncsc1C(CNC(=O)c1cccc2ncccc12)N1CCC(Oc2ccc(F)cc2)CC1 (stereo not drawn) [Compound 19]

1: 30.2 nM; 2: 40.7 nM; 3: 30.6 nM; 4: 35.1 nM; 5: 23.6 nM; 6: 23.9 nM

Provide reported IC50 for each item, in the same order as listed.
1. O=C(NCC(c1scnc1C(F)F)N1CCC(OCc2ccc(F)c(F)c2)CC1)c1cccc2ncccc12 (stereo not drawn) [Compound 33]
2. O=C(NCC(c1scnc1C(F)F)N1CCC(Oc2ccc(F)cc2)CC1)c1cccc2ncccc12 (stereo not drawn) [Compound 34]
3. Cc1ncsc1C(CNC(=O)c1c(F)cccc1Cl)N1CCC(Oc2ccc(F)c(F)c2)CC1 (stereo not drawn) [Compound 12]
4. Cc1ncsc1C(CNC(=O)c1cccc2ncccc12)N1CCC(OCc2ccc(F)c(F)c2)CC1 (stereo not drawn) [Compound 18]
5. O=C(NCC(c1scnc1C(F)F)N1CCC(Oc2ccccc2F)CC1)c1cccc2ncccc12 (stereo not drawn) [Compound 37]
6. Cc1ncsc1C(CNC(=O)c1c(F)cccc1Cl)N1CCC(Oc2ccccc2F)CC1 (stereo not drawn) [Compound 10]

1: 56.2 nM; 2: 39.7 nM; 3: 25.8 nM; 4: 36.9 nM; 5: 43.2 nM; 6: 42.9 nM

I have 2 compounds here; please give me IC50 for each one.
1. Cc1ncsc1C(CNC(=O)c1c(F)cccc1Cl)N1CCC(Oc2ccc(F)cc2)CC1 (stereo not drawn) [Compound 7]
2. Cc1ncsc1C(CNC(=O)c1c(F)cccc1Cl)N1CCC(OCc2ccccc2F)CC1 (stereo not drawn) [Compound 4]

1. 51.5 nM
2. 28.1 nM
